- Test system: Resistant Enterococcus faecium and faecalis
- experiment: MIC, standard broth micro-dilution assay, Resistant
- Assay type: cell-based
- assay-context: geometric mean of 4-6 isolates
Give minimal inhibitory concentration (MIC), Resistant for every item shown.
Keep the answer to the number alone.

Entry under review: CC(C)CCC(=O)NC1C(=O)NC(CC(N)=O)C(=O)NC2C(=O)NC3C(=O)NC(C(=O)NC(C(=O)O)c4cc(O)cc(O)c4-c4cc3ccc4O)C(OC3CC(C)(N)C(O)C(C)O3)c3ccc(c(Cl)c3)Oc3cc2cc(c3OC2OC(CO)C(O)C(O)C2OC2CC(C)(NCc3ccc(-c4ccccc4)cc3)C(O)C(C)O2)Oc2ccc(cc2Cl)C1O (stereo not drawn) [Example 5] . Reported minimal inhibitory concentration (MIC), Resistant? 27

Again, but for CCCCCCNC(CC(C)C)C(=O)NC1C(=O)NC(CC(N)=O)C(=O)NC2C(=O)NC3C(=O)NC(C(=O)NC(C(=O)O)c4cc(O)cc(O)c4-c4cc3ccc4O)C(OC3CC(C)(N)C(O)C(C)O3)c3ccc(c(Cl)c3)Oc3cc2cc(c3OC2OC(CO)C(O)C(O)C2OC2CC(C)(NCCCCCC)C(O)C(C)O2)Oc2ccc(cc2Cl)C1O (stereo not drawn) [Example 38] 6.7

For CC1OC(OC2c3ccc(c(Cl)c3)Oc3cc4cc(c3OC3OC(CO)C(O)C(O)C3OC3CC(C)(NCc5ccc(-c6ccccc6)cc5)C(O)C(C)O3)Oc3ccc(cc3Cl)C(O)C(NC(=O)C(CCCCNC(=O)OC(C)(C)C)NC(=O)OC(C)(C)C)C(=O)NC(CC(N)=O)C(=O)NC4C(=O)NC3C(=O)NC2C(=O)NC(C(=O)O)c2cc(O)cc(O)c2-c2cc3ccc2O)CC(C)(N)C1O (stereo not drawn) [Example 19] then? 64

Next: CC1OC(OC2c3ccc(c(Cl)c3)Oc3cc4cc(c3OC3OC(CO)C(O)C(O)C3OC3CC(C)(NCc5ccc(-c6ccc(Cl)cc6)cc5)C(O)C(C)O3)Oc3ccc(cc3Cl)C(O)C(NC(=O)CCCCCCNC(=O)OC(C)(C)C)C(=O)NC(CC(N)=O)C(=O)NC4C(=O)NC3C(=O)NC2C(=O)NC(C(=O)O)c2cc(O)cc(O)c2-c2cc3ccc2O)CC(C)(N)C1O (stereo not drawn) [Example 9] 4.8

Also CC1OC(OC2c3ccc(c(Cl)c3)Oc3cc4cc(c3OC3OC(CO)C(O)C(O)C3OC3CC(C)(NCc5ccc(-c6ccc(Cl)cc6)cc5)C(O)C(C)O3)Oc3ccc(cc3Cl)C(O)C(NC(=O)CCCCCCN)C(=O)NC(CC(N)=O)C(=O)NC4C(=O)NC3C(=O)NC2C(=O)NC(C(=O)O)c2cc(O)cc(O)c2-c2cc3ccc2O)CC(C)(N)C1O (stereo not drawn) [Example 10] , if possible. 5.7

Also need CC(C)CC(NC(=O)OC(C)(C)C)C(=O)NC1C(=O)NC(CC(N)=O)C(=O)NC2C(=O)NC3C(=O)NC(C(=O)NC(C(=O)O)c4cc(O)cc(O)c4-c4cc3ccc4O)C(OC3CC(C)(N)C(O)C(C)O3)c3ccc(c(Cl)c3)Oc3cc2cc(c3OC2OC(CO)C(O)C(O)C2OC2CC(C)(NCc3ccc(-c4ccccc4)cc3)C(O)C(C)O2)Oc2ccc(cc2Cl)C1O (stereo not drawn) [Example 11] , thanks. 45

Likewise for CC1OC(OC2c3ccc(c(Cl)c3)Oc3cc4cc(c3OC3OC(CO)C(O)C(O)C3OC3CC(C)(NCc5ccc(-c6ccccc6)cc5)C(O)C(C)O3)Oc3ccc(cc3Cl)C(O)C(NC(=O)C3CCCN3)C(=O)NC(CC(N)=O)C(=O)NC4C(=O)NC3C(=O)NC2C(=O)NC(C(=O)O)c2cc(O)cc(O)c2-c2cc3ccc2O)CC(C)(N)C1O (stereo not drawn) [Example 12] ? 2.8

For CC1OC(OC2c3ccc(c(Cl)c3)Oc3cc4cc(c3OC3OC(CO)C(O)C(O)C3OC3CC(C)(NCc5ccc(-c6ccccc6)cc5)C(O)C(C)O3)Oc3ccc(cc3Cl)C(O)C(NC(=O)CCCCCCCc3ccccc3)C(=O)NC(CC(N)=O)C(=O)NC4C(=O)NC3C(=O)NC2C(=O)NC(C(=O)O)c2cc(O)cc(O)c2-c2cc3ccc2O)CC(C)(N)C1O (stereo not drawn) [Example 3] then? 6.7

Now consider CC1OC(OC2c3ccc(c(Cl)c3)Oc3cc4cc(c3OC3OC(CO)C(O)C(O)C3OC3CC(C)(NCc5ccc(-c6ccccc6)cc5)C(O)C(C)O3)Oc3ccc(cc3Cl)C(O)C(NC(=O)C(N)CCCCN)C(=O)NC(CC(N)=O)C(=O)NC4C(=O)NC3C(=O)NC2C(=O)NC(C(=O)O)c2cc(O)cc(O)c2-c2cc3ccc2O)CC(C)(N)C1O (stereo not drawn) [Example 31] and answer again. 5.6
